- test: in vitro
- assay setup: CC50, Table 18; line Neutral Red (Cytopathic effect/Toxicity)
property: CC50

Ask | Recorded CC50 of NC(=O)c1ncn([C@@H]2O[C@H](CO)[C@@H](O)[C@H]2O)n1 [Ribavirin, reference compound] , please.
Reply | > 320 µg/mL
